Each entry below lists one item and its recorded MIC value.
Test system: Klebsiella pneumoniae
Assay: Antibacterial activity against drug-resistant carbapenemase producing Klebsiella pneumoniae clinical isolate KP-13-45 after 16 to 20 hrs by broth microdilution method
Type: functional
Report field: quantity (unit follows the number).

Mol	MIC
CCCCCCCC[N+](C)(C)CC(=O)Nc1ccc(C(=O)/C=C/c2ccccc2C(F)(F)F)cc1.[Cl-]	8 µg/mL
CCCCCCCC[N+](C)(C)CC(=O)Nc1ccc(C(=O)/C=C/c2ccc(Cl)cc2)cc1.[Cl-]	8 µg/mL
CCCCCCCC[N+](C)(C)CC(=O)Nc1ccc(C(=O)/C=C/c2ccc(F)cc2)cc1.[Cl-]	4 µg/mL

Enquiry: Given the molecule `CCCCCCCC[N+](C)(C)CC(=O)Nc1ccc(C(=O)/C=C/c2cccs2)cc1.[Cl-]` , write its reported MIC.
Return: 8 µg/mL

Enquiry: Report MIC, nothing else, for this molecule: `CCCCCCCC[N+](C)(C)CC(=O)Nc1ccc(C(=O)/C=C/c2ccc(F)cc2F)cc1.[Cl-]`
Return: 8 µg/mL

Enquiry: Tell me measured MIC for `CCCCCCCC[N+](C)(C)CC(=O)Nc1ccc(C(=O)/C=C/c2ccc(C)cc2)cc1.[Cl-]` please.
Return: 4 µg/mL

====

Test: Hemolytic activity in sheep RBC after 1 hr
Assay type: ADME, cell-based, Ovis aries, Erythrocyte
Settings: sheep red blood cells (erythrocytes)
Consider the following compounds and their measured HC50 at 1 h readings.
Answer with a number only, understood to be in µg/mL.

// below: answered compounds
Mol	Metric Name	Result
CCCCCCCC[N+](C)(C)CC(=O)Nc1ccc(C(=O)/C=C/c2ccccc2F)cc1.[Cl-]	HC50 at 1 h	137
CCCCCCCC[N+](C)(C)CC(=O)Nc1ccc(C(=O)/C=C/c2cccnc2)cc1.[Cl-]	HC50 at 1 h	127
CCCCCCCC[N+](C)(C)CC(=O)Nc1ccc(C(=O)/C=C/c2ccco2)cc1.[Cl-]	HC50 at 1 h	137
CCCCCCCC[N+](C)(C)CC(=O)Nc1ccc(C(=O)/C=C/c2ccccc2C(F)(F)F)cc1.[Cl-]	HC50 at 1 h	136

Enquiry: Return value of HC50 at 1 h for input `CCCCCCCC[N+](C)(C)CC(=O)Nc1ccc(C(=O)/C=C/c2cccc(F)c2)cc1.[Cl-]` , no commentary.
Return: 68

Enquiry: Quickly give me recorded HC50 at 1 h for `CCCCCCCC[N+](C)(C)CC(=O)Nc1ccc(C(=O)/C=C/c2ccc(OC)cc2)cc1.[Cl-]`
Return: 124

Enquiry: In one line, give reported HC50 at 1 h of the entry `CCCCCCCC[N+](C)(C)CC(=O)Nc1ccc(C(=O)/C=C/c2c(F)cccc2F)cc1.[Cl-]` .
Return: 50

====

Here, each record is paired with measured MIC data.
Tested on: Staphylococcus aureus
Test: Antibacterial activity against methicillin-resistant Staphylococcus aureus clinical isolate 1104060 after 16 to 20 hrs by broth microdilution method
Format: functional
Report the figure in µg/mL without appending any unit label.

Mol	MIC [µg/mL]
CCCCCCCC[N+](C)(C)CC(=O)Nc1ccc(C(=O)/C=C/c2ccc3ccccc3c2)cc1.[Cl-]	16
CCCCCCCC[N+](C)(C)CC(=O)Nc1ccc(C(=O)/C=C/c2ccco2)cc1.[Cl-]	32
CCCCCCCC[N+](C)(C)CC(=O)Nc1ccc(C(=O)/C=C/c2ccc(F)cc2F)cc1.[Cl-]	8

Enquiry: Give the value of MIC reported for the following: `CCCCCCCC[N+](C)(C)CC(=O)Nc1ccc(C(=O)/C=C/c2cccs2)cc1.[Cl-]`
Return: 16

Enquiry: Kindly indicate its recorded MIC. Item: `CCCCCCCC[N+](C)(C)CC(=O)Nc1ccc(C(=O)/C=C/c2ccccc2C(F)(F)F)cc1.[Cl-]`
Return: 16

Enquiry: Return the recorded MIC value; entry: `CCCCCCCC[N+](C)(C)CC(=O)Nc1ccc(C(=O)/C=C/c2ccc(OC)cc2)cc1.[Cl-]`
Return: 8

Enquiry: For the compound `CCCCCCCC[N+](C)(C)CC(=O)Nc1ccc(C(=O)/C=C/c2ccc(Cl)cc2)cc1.[Cl-]` , give its measured MIC value.
Return: 4

Enquiry: Supply reported MIC belonging to this compound: `CCCCCCCC[N+](C)(C)CC(=O)Nc1ccc(C(=O)/C=C/c2ccccc2)cc1.[Cl-]`
Return: 8

Enquiry: Retrieve MIC measured for `CCCCCCCC[N+](C)(C)CC(=O)Nc1ccc(C(=O)/C=C/c2ccc(C)cc2)cc1.[Cl-]` and print it.
Return: 4

Enquiry: Indicate its recorded MIC; the compound in question is `CCCCCCCC[N+](C)(C)CC(=O)Nc1ccc(C(=O)/C=C/c2ccccc2F)cc1.[Cl-]`
Return: 8

Enquiry: Consider the compound `CCCCCCCC[N+](C)(C)CC(=O)Nc1ccc(C(=O)/C=C/c2cccc(Cl)c2)cc1.[Cl-]` . State its measured MIC.
Return: 8

Enquiry: Please supply the value of reported MIC for the item `CCCCCCCC[N+](C)(C)CC(=O)Nc1ccc(C(=O)/C=C/c2ccc(F)cc2)cc1.[Cl-]`
Return: 8
